# credit: ChEMBL document CHEMBL5136986

- TARGET_OR_TEST_SYSTEM: Dual specificity tyrosine-phosphorylation-regulated kinase 1A (Homo sapiens)
- EXPERIMENT_SUMMARY: Inhibition of GST-fused recombinant human DYRK1A expressed in Escherichia coli using KKISGRLSPIMTEQ as substrate in presence of ATP
VALUE_KIND: pIC50
Friendly reminder that pIC50 comes from taking -log10 of the concentration in mol/L.

Lookup: pIC50 / Dual specificity tyrosine-phosphorylation-regulated kinase 1A (Homo sapiens) / O=c1c2c(ccc3nc(-c4cnccn4)sc32)ncn1Cc1ccccc1
6.95
